assay: binders of probe aFST on microarray, primary screen, stem cell growth factor project, biochemical, small-molecule microarray, fluorescence 635/667 (AID 1086); conditions: higher = more signal;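 further: score merges 667 nm fluorescence with signal-to-noise of each printed compound spot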
quantity.name: composite z-score
Answer with a bare number; do not write a unit.

QUERY: Retrieve composite z-score measured for C=CC[C@H](OC(=O)Nc1ccc(SC)cc1)c1ccc(O)c(F)c1 and print it.
RESULT: -0.512

QUERY: Retrieve composite z-score measured for CCOC(=O)C[C@H]1[C@H](OC(=O)c2ccc(-c3ccccc3)cc2)[C@@H](NC(=O)C2CCCCC2)c2cc(OCCCO)ccc2N1C(=O)Cc1ccc(OC)cc1 and print it.
RESULT: 0.241

QUERY: Retrieve composite z-score measured for COC(=O)[C@@]1(Cc2ccccc2)[C@H]2c3cc(C(=O)N(C)C)n(CCF)c3C[C@H]2CN1C(=O)c1ccccc1 and print it.
RESULT: 0.974

QUERY: Retrieve composite z-score measured for CN1C(=O)C2C=CC(C(O)c3cccs3)N(N(c3ccccc3)c3ccccc3)C2C1=O (stereo not given) and print it.
RESULT: 0.379

QUERY: Retrieve composite z-score measured for O=C1N(Cc2ccccc2)Cc2ccccc2C[C@@]12COC(c1ccc(OCCCO)cc1)=N2 and print it.
RESULT: 0.419

QUERY: Retrieve composite z-score measured for C=C(CCCC)C(=O)CC[C@H](OC(=O)c1ccccc1-c1ccccc1C(=O)O)c1cccc(OCCO)c1 and print it.
RESULT: -0.284

QUERY: Retrieve composite z-score measured for CC(C)(C)OC(=O)CC[C@@]1(C(N)=O)N=C(c2ccc(OCCCO)cc2)O[C@@H]1c1ccccc1CN=[N+]=[N-] and print it.
RESULT: 1.47

QUERY: Retrieve composite z-score measured for C=CCNC(=O)[C@@H]1[C@H]2C(=O)O[C@H](c3ccccc3)[C@H](c3ccccc3)N2[C@H](c2ccc(O)cc2)[C@@]12C(=O)N(C(=O)OCCOC)c1ccc(C#CCC(C(=O)OC)C(=O)OC)cc12 and print it.
RESULT: 0.884

QUERY: Retrieve composite z-score measured for CC(C)(C)OC(=O)CC[C@@]1(C(=O)N2CCOCC2)N=C(c2ccc(OCCCO)cc2)O[C@@H]1c1ccccc1CN=[N+]=[N-] and print it.
RESULT: 0.694

QUERY: Retrieve composite z-score measured for Cc1ccc(S[C@]2(C(=O)NCC(C)C)CC(=O)N(C(C)C)[C@@H]2c2ccc(CO)cc2I)cc1 and print it.
RESULT: 0.161

QUERY: Retrieve composite z-score measured for COC(=O)[C@@]1(Cc2ccccc2)[C@H]2c3cc(C(=O)N(C)C)n(Cc4ccc(Cl)c(C(F)(F)F)c4)c3C[C@H]2CN1C(=O)c1ccccc1 and print it.
RESULT: 1.51

QUERY: Retrieve composite z-score measured for CN1C(=O)C2C=CC(C(O)COCc3ccccc3)N(Nc3ccc([N+](=O)[O-])cc3[N+](=O)[O-])C2C1=O (stereo not given) and print it.
RESULT: 0.329

QUERY: Retrieve composite z-score measured for COCCOC(=O)N1C(=O)[C@@]2(c3cc(C#CC4=CCCCC4)ccc31)[C@H](C(=O)N1CCCCCCC1)[C@H]1C(=O)O[C@H](c3ccccc3)[C@H](c3ccccc3)N1[C@@H]2c1ccccc1OCCO and print it.
RESULT: 2.04

QUERY: Retrieve composite z-score measured for C=CC[C@]12N=C(c3ccc(OCCCO)cc3)O[C@H]1c1ccccc1N(CCC)C2=O and print it.
RESULT: 2

QUERY: Retrieve composite z-score measured for C=C(C)C1CN([C@H](CO)c2ccccc2)C(=O)/C1=C\c1ccccc1 (stereo not given in full) and print it.
RESULT: 0.173
